# Tested on: PRMT1 (protein arginine N-methyltransferase 1)
# Protocol: PRMT1 binders on small-molecule microarrays, primary screen, biochemical, small-molecule microarray, 635 nm fluorescence (AID 1088);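 further: binding of Prmt1 protein to compounds spotted on small-molecule microarray slides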
# Assay conditions: small-molecule microarray binding, higher = more signal
Outcome measure: composite z-score

C=CCC(OC(C)=O)[C@@H]1[C@@H](N(Cc2ccc(-c3ccccc3)cc2)C(=O)c2ccc(C)cc2)c2cc(OCCCO)ccc2N1C(=O)c1ccc(-c2ccccc2)cc1 (stereo partly drawn) | -0.173
CO[C@H]1COC(=O)[C@H](C)NC(=O)CC=C[C@@H](C)[C@H](NS(=O)(=O)c2ccc(C)cc2)COC(=O)CC=C[C@@H]1C | 0.0763
CO[C@H]1COC(=O)[C@H](Cc2ccccc2)NC(=O)CC=C[C@@H](C)[C@H](OC)COC(=O)CC=C[C@@H]1C | -0.141
CO[C@H]1COC(=O)[C@@H](OCc2ccccc2)C=C[C@H](C)[C@@H](OC)COC(=O)[C@H](OCc2ccccc2)C=C[C@@H]1C | -0.374
CCCNC(=O)[C@@H]1c2ccccc2C(=O)N(Cc2cc(F)cc(C(F)(F)F)c2)[C@H]1c1ccc(CO)cc1 | 1.54
CO[C@H]1COC(=O)CC=C[C@H](C)[C@@H](OC)COC(=O)[C@H](Cc2ccccc2)NC(=O)CC=C[C@@H]1C | 0.942
C=C(CCCC)C(=O)CC[C@@H](OC(=O)c1cccnc1)c1cccc(OCCO)c1 | 1.12
CCN1C(C)=C(C(=O)OC)[C@@H](c2ccccc2)N2C(=O)[C@@]3(C(=O)OC)O[C@@]12[C@@H]1C(=O)N(C)C(=O)[C@@H]13 | 0.962
CCN1C(C)=C(C(=O)OC)[C@@H](c2ccccc2)N2C(=O)[C@@]3(C(=O)OC)O[C@@]12[C@@H]1C(=O)N(c2ccccc2)C(=O)[C@@H]13 | 1.22
O=C1C2C=CC(C(O)C#Cc3ccccc3)N(Nc3ccccc3)C2C(=O)N1c1ccccc1 (stereo not drawn) | 0.398
COCCOC(=O)N1C(=O)[C@@]2(c3cc(C#CCCO)ccc31)[C@H](c1ccc(OCCO)cc1)N1[C@H](c3ccccc3)[C@H](c3ccccc3)OC(=O)[C@H]1[C@@H]2C(=O)NC[C@H](O)c1ccccc1 | 1.54
[N-]=[N+]=NCc1ccccc1C[C@]1(C(N)=O)N=C(c2ccc(OCCCO)cc2)O[C@H]1c1ccccc1CN=[N+]=[N-] | 1.32
N#Cc1ccc(NN2C(C(O)CCc3ccccc3)C=CC3C(=O)N(c4ccccc4)C(=O)C32)cc1 (stereo not drawn) | 0.212
COc1ccc(C(O)C2C=CC3C(=O)N(C)C(=O)C3N2N2CCCCC2)cc1OCc1ccccc1 (stereo not drawn) | 0.922
CO[C@H]1COC(=O)[C@@H](Cc2ccccc2)NC(=O)[C@@H](C)COC(=O)CC=C[C@@H]1C | 0.633
COCCCNC(=O)[C@@]1(Sc2ccc(C)cc2)CC(=O)N(Cc2cc(C(F)(F)F)cc(C(F)(F)F)c2)[C@@H]1c1ccc(CO)cc1I | -0.217
Cc1ccc(S(=O)(=O)c2cc3oc2CC[C@@H](CO)NC(=O)N(C)Cc2cn(nn2)C[C@H](Cc2ccccc2)NC3=O)cc1 | 0.0985
COc1ccc([Si](C)(C)[C@@H]2[C@@H](CC(=O)N(CCO)Cc3ccccc3)O[C@]3(C(=O)N(Cc4cccc(N5CCC5=O)c4)c4ccccc43)[C@H]2C)cc1 | 1.56
COC(=O)Cn1c(C(=O)N2CCCC2)cc2c1C[C@H]1CN(C(=O)c3ccccc3)[C@@](Cc3ccccc3)(C(=O)OC)[C@@H]21 | -0.257
Cc1ccc(S[C@]2(C(=O)O)CC(=O)N(Cc3ccccc3)[C@@H]2c2ccc(CO)cc2)cc1 | 0.191
Cc1ccc(S[C@]2(C(=O)NC(C)C)CC(=O)N(Cc3cc(C(F)(F)F)cc(C(F)(F)F)c3)[C@@H]2c2ccc(CO)cc2I)cc1 | 1.26
COCCCNC(=O)[C@@]1(c2ccc([N+](=O)[O-])cc2)CC(=O)N(C2CCCCC2)[C@@H]1c1ccc(CO)cc1 | 0.139
CC(C)(C)OC(=O)CC[C@]1(C(=O)NCCN2CCOCC2)N=C(c2ccc(OCCCO)cc2)O[C@H]1c1ccccc1CN=[N+]=[N-] | 0.82
C[C@@H]1NC(=O)CC=C[C@@H](C)[C@@H]2C=C[C@H](O)[C@@H](COC(=O)[C@H](C)NC(=O)CC=C[C@@H](C)[C@@H]3C=C[C@H](O)[C@@H](COC1=O)O3)O2 | 0.0027
C=CCC(OC(C)=O)[C@@H]1[C@@H](N(Cc2cc3ccccc3o2)C(=O)Cc2ccc(F)cc2)c2cc(OCCCO)ccc2N1C(=O)c1ccc(-c2ccccc2)cc1 (stereo partly drawn) | -1.44
NC(=O)NCC#Cc1ccc2c(c1)[C@]1(C(=O)N2)[C@H](C(N)=O)[C@H]2C(=O)O[C@H](c3ccccc3)[C@H](c3ccccc3)N2[C@@H]1c1ccccc1OCCO | 1.22
COC(=O)[C@@]1(Cc2ccccc2N=[N+]=[N-])N=C(c2ccc(OCCCO)cc2)O[C@H]1c1ccccc1CN=[N+]=[N-] | 1.41
NC(=O)NCC#Cc1ccc2c(c1)[C@]1(C(=O)N2)[C@H](C(=O)N2CCCCCCC2)[C@H]2C(=O)O[C@H](c3ccccc3)[C@H](c3ccccc3)N2[C@@H]1c1ccccc1OCCO | 1.54
